# Tested on: VERO-E6 cells
# experimentalConditions: African green monkey
measurementType: CC50 (µM)
A number alone suffices; assume µM.

# get_value(readout='CC50', item= CCOC(=O)c1cnn2c(-c3ccc(Cl)cc3)nc(NCc3ccccc3)nc12 [Compound 3] ) 88

----------
# measurementProtocol: in vitro
# experimentalConditions: African green monkey
In this section, each of the compounds is paired with its reported CC50.
Dear colleague, please return just the value in µM, with no unit written.

Consider the reported CC50 for these compounds:
>>> observedmeasurement("O=C(NCCc1ccccc1)c1cnn2c(-c3ccccc3)nc(NCCc3ccccc3)nc12")
578
>>> observedmeasurement("CCOC(=O)c1cnn2c(-c3ccc(Cl)cc3)nc(NCc3ccccc3)nc12")
88.1
>>> observedmeasurement("CCOC(=O)c1cnn2c(-c3ccc(Br)cc3)nc(N3CCCC3)nc12")
279
>>> observedmeasurement("CCOC(=O)c1cnn2c(-c3ccc(Br)cc3)nc(NCc3ccccc3)nc12")
445
>>> observedmeasurement("CCOC(=O)c1cnn2c(-c3ccc(Cl)cc3)nc(N3CCCCC3)nc12")
87.5

GET /values?readout=CC50&item= `CCOC(=O)c1cnn2c(-c3ccccc3)nc(N3CCCCC3)nc12` 366

Can you look up the measured CC50 of `O=C(NCc1ccccc1)c1cnn2c(-c3ccccc3)nc(NCc3ccccc3)nc12` for me? 400

Quick check: CC50 of `CCOC(=O)c1cnn2c(-c3ccccc3)nc(NCc3ccccc3)nc12` ? 463

Entry under review: `O=C(NCCc1ccccc1)c1cnn2c(-c3ccc(Cl)cc3)nc(NCCc3ccccc3)nc12` . Reported CC50? 343
